Measured values drawn from patent US20030225132A1 for this set.

- Tested on: MCF-7 cells
- assay-overview: MCF-7 Estrogen Dependent Proliferation Assay
- Format: cell-based
- condition-label: Homo sapiens, MCF7; added to Estrogen Depleted Media (EDM); read-out: EC50 of stimulation of growth of MCF-7 cells
recorded-endpoint: EC50 (pM)
Please state the figure in pM; there is no need to write the unit.

# lookup: EC50 of C[C@]12CC[C@@H]3c4ccc(O)cc4CC[C@H]3[C@@H]1CC[C@@H]2O
2
